System: HIV-1
Test: Test E (HIV-1 RT), RT activity in supernatant of infected MT-4/H9 cells
Type: cell-based
Conditions: Human immunodeficiency virus 1, H9, Test E; 10 µg/ml
Provide the reported inhibition at 10 µg/mL of each item.
Answers are plain numbers, in %.

Worked cases, answers included:
S=C(NCCc1ccccc1)Nc1nc2ccccc2s1 : 96
Fc1ccc2nc(NC(=S)NCCc3ccccc3)sc2c1 : 16
FC(F)(F)c1csc(NC(=S)NCCc2ccccc2)n1 : 96
S=C(NCCc1ccccc1)Nc1nc2ccc(Cl)cc2s1 : 51
N#Cc1csc(NC(=S)NCCc2ccccc2)n1 : 98
S=C(NCCc1ccccc1)Nc1nc2c(Cl)cccc2s1 : 8
S=C(NCCc1ccccc1)Nc1nccs1 : 99

Read the next record carefully.
(Q) Can you share its inhibition at 10 µg/mL? I mean this compound: "Cc1nc(NC(=S)NCCc2ccccc2)sc1C"
(A) 91
